Task for the reader: assign each of the following molecules its reported melting point.

The recorded melting point for COc1ccc(CNC(=O)c2cc([N+](=O)[O-])ccc2N[C@@H](CO)CCSC)cc1OC is 150 to 152 °C

The recorded melting point for Fc1cccc(CSc2nnc(-c3ccnc4[nH]ccc34)o2)c1 is 190 to 191 °C

The recorded melting point for CCCNS(=O)(=O)c1cc2cc(P(=O)(OCC)OCC)c(=O)[nH]c2cc1Cl is > 300 °C

The recorded melting point for COC(=O)C1(Sc2cc(N=c3sc(=O)n4n3CCCC4)c(F)cc2Cl)CC1 is 149 °C

The recorded melting point for Fc1ccc(C(=C(c2ccccc2)C(F)(F)F)c2ccc(OCCBr)cc2)cc1 is 142 to 144 °C

The recorded melting point for Cc1ccc(-n2nc(C(C)(C)C)cc2NC(=O)Nc2ccc(OCCN3CCOCC3)c3ccccc23)cc1 is 142 to 143 °C

The recorded melting point for CCOC(=O)N1CCN(C(c2ccccc2)c2ccccc2)CC1(C)Cc1ccc(OC)c(OC)c1 (centres undefined) is 101 °C

The recorded melting point for CCCc1c(O)ccc2c1OC(C)(CCC(N)=O)CC2=O (centres undefined) is 108 to 115 °C

The recorded melting point for Cn1cc(-c2ncc(OC3SCC(O)C(O)C3O)cc2F)cn1 (centres undefined) is 206 °C
